Source of measurements: patent US20150246938A1

Biological target: recombinant human ACC2 (Homo sapiens)
Construct: a cDNA encoding human ACC2 (27-2458) was cloned from human kidney cDNA library (Clontech); His-tag (N); made in house; host or cells: Sf-9 insect cells (Bac-to-Bac baculovirus)
Experiment: Measurement of inhibitory activity on human ACC2 (MALDI-TOF MS, acetyl CoA to malonyl CoA conversion)
Type: biochemical
Details: inhibition activity on human ACC2, Table 84; read-out: IC50
measure: IC50 (nM)

molecule | numeric.result
CCOc1ccc(Oc2ccc(/C=C(\F)[C@H](C)NC(C)=O)cn2)c(Cl)c1 [Compound I-471] | 16
CC(=O)N[C@@H](C)/C=C/c1ccc(Oc2cnc(OCC3CC3)nc2)nc1 [Compound I-492] | 80
C/C=C/c1ccc(Oc2ccc(/C=C/[C@H](C)NC(C)=O)cn2)c(Cl)c1 [Compound I-460] | 130

(A) CCOc1ccc(Oc2ncc(/C=C/[C@H](C)NC(C)=O)cc2F)c(Cl)c1 [Compound I-446]
(B) CC(=O)N[C@@H](C)/C=C/c1cnc(Oc2ccc(OCC3CC3)cc2Cl)c(C)c1 [Compound I-443]
(C) CCCc1ccc(Oc2cnc(/C=C/[C@H](C)NC(C)=O)cn2)c(Cl)c1 [Compound I-433]
(D) CC(=O)N[C@@H](C)/C=C/c1ccc(Oc2ccc(N3CCCCC3)nc2)nc1 [Compound I-516]
(E) CC(=O)N[C@@H](C)/C=C/c1ccc(Oc2ccc3c(C)noc3c2)nc1 [Compound I-456]
Problem: Rank the items in ascending order with respect to IC50. Please write the labels in the order that was asked for.
Result: B, C, A, D, E

###

Biological target: recombinant human ACC2 (Homo sapiens, UniProt O00763)
Construct: a cDNA encoding human ACC2 (27-2458) was cloned from human kidney cDNA library (Clontech); His-tag (N); made in house; host or cells: Sf-9 insect cells (Bac-to-Bac baculovirus)
Sequence (O00763 27-2458): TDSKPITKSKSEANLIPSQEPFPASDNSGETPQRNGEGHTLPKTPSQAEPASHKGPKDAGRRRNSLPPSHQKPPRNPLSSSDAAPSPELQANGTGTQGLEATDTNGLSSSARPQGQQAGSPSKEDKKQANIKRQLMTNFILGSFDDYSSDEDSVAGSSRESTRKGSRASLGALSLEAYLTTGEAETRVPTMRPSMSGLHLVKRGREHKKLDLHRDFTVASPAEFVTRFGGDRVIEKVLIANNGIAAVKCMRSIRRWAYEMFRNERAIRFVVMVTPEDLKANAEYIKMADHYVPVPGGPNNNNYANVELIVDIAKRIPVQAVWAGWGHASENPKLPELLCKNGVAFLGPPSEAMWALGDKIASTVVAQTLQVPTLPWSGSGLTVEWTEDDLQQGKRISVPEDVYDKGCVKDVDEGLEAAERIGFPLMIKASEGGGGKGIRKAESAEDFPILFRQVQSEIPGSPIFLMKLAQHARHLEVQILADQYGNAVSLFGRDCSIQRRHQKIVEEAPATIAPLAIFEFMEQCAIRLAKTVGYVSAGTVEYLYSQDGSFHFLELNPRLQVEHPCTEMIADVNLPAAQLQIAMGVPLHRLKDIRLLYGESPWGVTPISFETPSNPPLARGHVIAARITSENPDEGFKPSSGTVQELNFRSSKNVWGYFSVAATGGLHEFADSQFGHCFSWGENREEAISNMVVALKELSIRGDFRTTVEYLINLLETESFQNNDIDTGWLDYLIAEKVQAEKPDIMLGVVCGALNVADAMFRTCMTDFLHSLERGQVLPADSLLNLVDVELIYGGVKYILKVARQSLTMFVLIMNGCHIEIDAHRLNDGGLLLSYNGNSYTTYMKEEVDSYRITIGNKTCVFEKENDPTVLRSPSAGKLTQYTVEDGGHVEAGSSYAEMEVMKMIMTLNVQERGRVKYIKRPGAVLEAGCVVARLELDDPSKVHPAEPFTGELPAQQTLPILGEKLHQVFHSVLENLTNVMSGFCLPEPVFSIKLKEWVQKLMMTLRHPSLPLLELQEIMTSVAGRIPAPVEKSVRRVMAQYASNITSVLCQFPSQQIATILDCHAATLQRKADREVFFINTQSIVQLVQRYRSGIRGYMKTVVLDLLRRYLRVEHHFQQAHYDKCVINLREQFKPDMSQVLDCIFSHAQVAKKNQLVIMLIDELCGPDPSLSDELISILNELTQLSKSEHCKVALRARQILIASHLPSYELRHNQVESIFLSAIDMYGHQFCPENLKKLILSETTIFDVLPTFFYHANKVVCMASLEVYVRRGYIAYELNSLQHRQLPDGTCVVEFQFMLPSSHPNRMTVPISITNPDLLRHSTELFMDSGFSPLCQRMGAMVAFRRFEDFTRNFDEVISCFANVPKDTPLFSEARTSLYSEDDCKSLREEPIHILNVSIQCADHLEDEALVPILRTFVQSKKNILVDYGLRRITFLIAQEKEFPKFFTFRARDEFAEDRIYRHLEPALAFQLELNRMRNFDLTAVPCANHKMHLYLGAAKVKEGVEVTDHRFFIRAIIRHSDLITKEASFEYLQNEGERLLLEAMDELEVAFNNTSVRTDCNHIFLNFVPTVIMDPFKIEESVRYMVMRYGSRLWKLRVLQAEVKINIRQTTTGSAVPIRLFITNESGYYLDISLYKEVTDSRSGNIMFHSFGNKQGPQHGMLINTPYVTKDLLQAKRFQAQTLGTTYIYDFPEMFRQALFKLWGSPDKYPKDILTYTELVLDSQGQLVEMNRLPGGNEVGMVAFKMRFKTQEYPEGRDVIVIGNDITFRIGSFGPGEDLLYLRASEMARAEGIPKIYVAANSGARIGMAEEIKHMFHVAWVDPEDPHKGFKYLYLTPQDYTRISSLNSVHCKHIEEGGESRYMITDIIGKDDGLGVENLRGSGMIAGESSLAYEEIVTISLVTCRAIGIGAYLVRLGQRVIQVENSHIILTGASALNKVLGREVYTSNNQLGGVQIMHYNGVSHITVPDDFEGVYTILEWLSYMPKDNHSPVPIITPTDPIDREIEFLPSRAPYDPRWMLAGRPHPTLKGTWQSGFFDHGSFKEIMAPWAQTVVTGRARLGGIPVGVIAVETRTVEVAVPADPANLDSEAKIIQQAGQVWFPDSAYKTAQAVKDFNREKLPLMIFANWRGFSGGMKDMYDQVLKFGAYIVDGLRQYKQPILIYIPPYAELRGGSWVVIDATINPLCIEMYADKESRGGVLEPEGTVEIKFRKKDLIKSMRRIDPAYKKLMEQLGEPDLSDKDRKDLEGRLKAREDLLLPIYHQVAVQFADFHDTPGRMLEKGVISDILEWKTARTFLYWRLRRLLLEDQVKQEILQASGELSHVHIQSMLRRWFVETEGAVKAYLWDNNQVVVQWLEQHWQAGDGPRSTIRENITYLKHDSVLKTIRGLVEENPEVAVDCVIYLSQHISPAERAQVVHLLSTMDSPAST
Assay: Measurement of inhibitory activity on human ACC2 (MALDI-TOF MS, acetyl CoA to malonyl CoA conversion)
Format: biochemical
Conditions: inhibition activity on human ACC2, untitled table (Table 81); read-out: IC50
measure: IC50 (nM)

(1) CC(=O)N[C@@H](C)/C=C/c1ccc(Oc2ccc3c(c2)OCC(=O)N3CC2CC2)nc1 [Compound I-260]
(2) CCN(CC)c1ccc(Oc2ccc(/C=C/[C@H](C)NC(C)=O)cn2)c(Cl)c1 [Compound I-288]
(3) CC(=O)N[C@@H](C)/C=C/c1cnn(Cc2cc(F)c(OCC3CC3)cc2F)c1 [Compound I-292]
(4) CC(=O)N[C@@H](C)/C=C/c1cnc(Oc2ccc(Br)c(Cl)c2)nc1 [Compound I-274]
Problem: List items by IC50 in falling order. Please write the labels in the order that was asked for.
Result: 3, 4, 1, 2
(3: 1600 nM, 4: 350 nM, 1: 150 nM, 2: 36 nM)

###

Molecular target: recombinant human ACC2 (Homo sapiens, UniProt O00763)
Construct: a cDNA encoding human ACC2 (27-2458) was cloned from human kidney cDNA library (Clontech); His-tag (N); made in house; host or cells: Sf-9 insect cells (Bac-to-Bac baculovirus)
Experiment: Measurement of inhibitory activity on human ACC2 (MALDI-TOF MS, acetyl CoA to malonyl CoA conversion)
Assay type: biochemical
measure: IC50 (µM)

molecule | unit.of.measurement | numeric.result
CC(=O)N[C@@H](C)/C=C/c1cnc(Oc2ccc(C(C)(C)C(F)(F)F)cc2Cl)cn1 [Compound I-428] | µM | 0.17

(a) CCCc1cc(Cl)c(Oc2ccc(/C=C/[C@H](C)NC(C)=O)cn2)c(Cl)c1 [Compound I-385]
(b) CC(=O)N[C@@H](C)/C=C/c1ccc(Oc2ccc(N3CCOCC3)cc2Cl)nc1 [Compound I-382]
(c) CCCc1ccc(Oc2ccc(/C=C/[C@H](C)NC(C)=O)cn2)c(-c2ccccc2)c1 [Compound I-408]
Problem: Rank descending by IC50. Please write the labels in the order that was asked for.
Result: c, b, a
